Measured CLint scaled at 0.5 μM of individual entries
Assay: Metabolic stability in human liver microsomes, unbound intrinsic clearance
Assay type: in vitro ADME
Conditions: liver microsomes, pH 7.4; unbound intrinsic clearance (human); Clint unbound = Cl int/fu mic; read-out: Cl int, mic unb. (h)
Where a name gives a salt, the structure may show the parent alone.

{"compound": "Cc1ccc2c(c1F)O[C@H](CO)C[C@@H]1CNCCN21", "CLint scaled at 0.5 μM": "< 83.3 mL/min/kg"}
{"compound": "COC[C@@H]1C[C@@H]2CNCCN2c2c(F)c(OC)cc(C(F)F)c2O1.Cl [Example 29, hydrochloride]", "CLint scaled at 0.5 μM": "83.3 to 833 mL/min/kg"}
{"compound": "COC[C@@H]1C[C@@H]2CNCCN2c2ccc(F)cc2O1.Cl [Example 51, hydrochloride]", "CLint scaled at 0.5 μM": "< 83.3 mL/min/kg"}
{"compound": "OC[C@@H]1C[C@@H]2CNCCN2c2cc(F)cc(Cl)c2O1 [Example 17, hydrochloride]", "CLint scaled at 0.5 μM": "< 83.3 mL/min/kg"}

Moving on to the next compound.
Reported CLint scaled at 0.5 μM ( COC[C@@H]1C[C@@H]2CNCCN2c2c(cc(F)c(F)c2F)O1.Cl [Example 47, hydrochloride] ) = < 83.3 mL/min/kg
